Biological target: Serine/threonine-protein kinase Sgk1 (Homo sapiens) (UniProt O00141);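 also: mean percent inhibition of SGK1, from the GSK PKIS screening panel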
Sequence (whole entry): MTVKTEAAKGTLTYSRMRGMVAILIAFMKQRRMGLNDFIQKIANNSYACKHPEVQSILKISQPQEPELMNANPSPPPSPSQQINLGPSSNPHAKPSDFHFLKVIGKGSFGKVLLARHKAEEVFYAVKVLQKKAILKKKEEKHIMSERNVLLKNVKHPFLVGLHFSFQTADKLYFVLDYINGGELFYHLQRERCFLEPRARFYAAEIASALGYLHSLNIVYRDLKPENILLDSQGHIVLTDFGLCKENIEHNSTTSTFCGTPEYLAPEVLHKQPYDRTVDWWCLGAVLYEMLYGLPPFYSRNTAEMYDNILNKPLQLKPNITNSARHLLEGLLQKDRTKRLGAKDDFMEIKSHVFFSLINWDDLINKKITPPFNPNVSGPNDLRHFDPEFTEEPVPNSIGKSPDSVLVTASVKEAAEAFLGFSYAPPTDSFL
Conditions: at 1 µM
Each record's class is read off its inhibition using these ranges: lower: < 3%; middle: ≥ 3% and < 9%; upper: ≥ 9%

- CC(C)(CO)CNC(=O)c1ccc2c(c1)/C(=N/Nc1ccc(S(N)(=O)=O)cc1)C(=O)N2: middle
- COc1ccc2[nH]c3c4[nH]c5ccc(OC)cc5c4c4c(c3c2c1)C(=O)NC4=O: upper
- CCOc1ccc2c(-c3ccnc(Nc4cccc(C(F)(F)F)c4)n3)cnn2n1: lower
- FC(F)(F)c1cccc(-c2nn3ncccc3c2-c2ccnc(Nc3ccc4c(c3)OCCO4)n2)c1: lower
- Fc1ccc(-c2cc(-c3c[nH]nc3-c3ccccn3)ccn2)cc1: middle
- NS(=O)(=O)c1ccc(N/N=C2\C(=O)Nc3ccc4ncccc4c32)cc1: upper
- COc1ccc(CNC(=O)c2ccc(-c3cc(-c4nnc(C)o4)ccc3C)cc2)cc1: middle
- NS(=O)(=O)c1ccc(Nc2ncc(-c3ccccc3)o2)cc1: upper
- CCn1c(-c2nonc2N)nc2c(C#CC(C)(C)O)nc(OC[C@H](N)c3ccccc3)cc21: middle
- COc1ccc2c(-c3ccnc(Nc4cccc(OC(F)(F)F)c4)n3)cnn2n1: lower

====

target: High affinity nerve growth factor receptor (Homo sapiens); conditions: at 0.1 µM;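 also: each value is a mean of replicate percent inhibition readings against TRKA kinase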
As shown below, each of these compounds has a reported inhibition value.
readoutKind: inhibition (%)

* CNC(=O)c1cccc(C#Cc2cncnc2Nc2ccc(OCc3cccc(F)c3)c(Cl)c2)c1 | -0.85
* COc1cc2ncn(-c3cc(OCc4ccccc4C(F)(F)F)c(C(=O)N(C)C)s3)c2cc1OC | 1.49
* CCn1c(-c2nonc2N)nc2cnc(Oc3cccc(NC(=O)c4ccc(N(C)C)cc4)c3)cc21 | 1.37
* COC(=O)Nc1nc2ccc(S(=O)(=O)c3ccc(NC(=O)Nc4cc(C(F)(F)F)ccc4F)cc3)cc2[nH]1 | 1.94
* CCc1nn2ncccc2c1-c1ccnc(NC2CC2)n1 | 0.51
* CNC(=O)c1cc(-c2ccc(F)cc2)cc(-c2ccc(S(=O)(=O)N3CCCC3)cc2)c1N | 1.97
* CC(=O)Nc1cccc(C#Cc2cncnc2Nc2ccc(OCc3cccc(F)c3)c(Cl)c2)c1 | 0.89
* CS(=O)(=O)CCNCc1coc(-c2ccc3ncnc(Nc4ccc(OCc5ccccc5)cc4)c3c2)c1 | 1.72
* CN(C)CCOc1ccc(-c2nc(-c3ccncc3)c(-c3ccc4c(c3)CC/C4=N\O)[nH]2)cc1 | 2.02

====

Catalogue of inhibition values
target: Tyrosine-protein kinase TXK (Homo sapiens) (UniProt P42681); conditions: at 0.1 µM;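 also: each listed value is a mean percent inhibition of TXK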
Sequence (P42681 whole entry): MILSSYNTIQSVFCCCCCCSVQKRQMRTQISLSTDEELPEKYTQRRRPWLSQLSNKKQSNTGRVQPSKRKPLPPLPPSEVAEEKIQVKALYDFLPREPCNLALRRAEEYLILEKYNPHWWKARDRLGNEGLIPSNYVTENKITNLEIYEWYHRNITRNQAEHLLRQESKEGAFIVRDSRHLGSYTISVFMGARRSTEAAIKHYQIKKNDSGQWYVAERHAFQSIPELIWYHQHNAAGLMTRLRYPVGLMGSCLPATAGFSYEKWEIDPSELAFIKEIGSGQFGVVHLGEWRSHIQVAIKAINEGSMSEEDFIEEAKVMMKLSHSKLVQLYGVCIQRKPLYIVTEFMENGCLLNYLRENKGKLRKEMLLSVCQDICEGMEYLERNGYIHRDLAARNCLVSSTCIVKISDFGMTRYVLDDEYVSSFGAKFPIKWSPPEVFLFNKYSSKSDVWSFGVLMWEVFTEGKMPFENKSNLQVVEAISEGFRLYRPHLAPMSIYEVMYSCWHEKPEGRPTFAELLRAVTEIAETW
readoutKind: inhibition (%)

* CCN(CC)S(=O)(=O)c1ccc(OC)c(Nc2ncc(-c3ccccc3)o2)c1 | 3.92
* COc1ccc2[nH]c3c4[nH]c5ccc(OC)cc5c4c4c(c3c2c1)C(=O)NC4=O | 2.51
* Cc1ccc(O)cc1Nc1ccnc2cc(-c3ccccn3)ccc12 | 42
* FC(F)(F)c1cccc(-c2nn3ncccc3c2-c2ccnc(Nc3ccc4c(c3)OCCO4)n2)c1 | 3.11
* c1cc(-c2cnn3nc(N4CCOCC4)ccc23)nc(NC2CC2)n1 | 3.34
* CCn1c(-c2nonc2N)nc2ccccc21 | 3.75
* Nc1ncc(-c2cccc(S(N)(=O)=O)c2)c2scc(-c3ccc(F)c(Cl)c3)c12 | 82
* COc1ccc(-c2cc(-c3c[nH]nc3-c3ccccn3)ccn2)cc1 | 1.77
* COc1ccc(-c2nn3ncccc3c2-c2ccnc(Nc3ccc4c(c3)OCCO4)n2)cc1 | -0.79
* Nc1nc(-c2ccc(F)cc2)c(-c2ccc3ncccc3n2)s1 | 3.19

====

biological target: Serine/threonine-protein kinase D1 (Homo sapiens); details: at 0.1 µM;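 also: values given as mean inhibition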
readoutKind: inhibition

* CC(C)COC(=O)c1ccc2c(c1)/C(=C/Nc1ccc(S(N)(=O)=O)cc1)C(=O)N2 | 4.18%
* CCn1c(-c2nonc2N)nc2ccccc21 | 2.23%
* N#Cc1c(NC(=O)CN2CCOCC2)sc2c1CCCC2 | 3.69%
* COc1ccc(CNC(=O)c2ccc(-c3cc(-c4nnc(C)o4)ccc3C)cc2)cc1 | 2.89%
* CCN(CC)S(=O)(=O)c1ccc(OC)c(Nc2ncc(-c3ccccc3)o2)c1 | 1.66%
* COC(=O)c1sc(-n2cnc3cc(OC)c(OC)cc32)cc1OCc1ccccc1C(F)(F)F | 3.64%
* CC(=O)Nc1cccc(C#Cc2cncnc2Nc2ccc(OCc3cccc(F)c3)c(Cl)c2)c1 | 1.8%
* CCc1nn2ncccc2c1-c1ccnc(NC2CC2)n1 | 2.35%
* Cc1ccc2c(-c3ccnc(Nc4ccccc4)n3)c(-c3ccc(F)cc3)nn2n1 | 10.1%
* CCOc1ccc2c(-c3ccnc(Nc4cccc(C(F)(F)F)c4)n3)cnn2n1 | 3.34%
* Fc1ccc(-c2nn3ccccc3c2-c2ccncc2)cc1 | 1.78%
* CNC(=O)c1cc(-c2ccc(F)cc2)cc(-c2ccc(S(=O)(=O)N3CCCC3)cc2)c1N | 3.87%
* Nc1nc(-c2cccc(Cl)c2)c(-c2ccc3ncccc3n2)s1 | 5.85%
* COC(=O)Nc1nc2ccc(Oc3ccc(NC(=O)Nc4cccc(Cl)c4)cc3)cc2[nH]1 | 2.7%
* c1cc(-c2cnn3nc(N4CCOCC4)ccc23)nc(NC2CC2)n1 | 3.97%
* FC(F)(F)c1cccc(-c2nn3ncccc3c2-c2ccnc(Nc3ccc4c(c3)OCCO4)n2)c1 | 3.4%
* c1ccc(-c2nc3n(c2-c2ccc4c(c2)OCO4)CCC3)nc1 | 1.92%
* Fc1ccc(-c2cc(-c3c[nH]nc3-c3ccccn3)ccn2)cc1 | 4.79%
* CC1=C(C(=O)Nc2cc(Cl)c3[nH]ncc3c2)C(c2ccc(C(F)(F)F)cc2)CC(=O)N1 (stereo unspecified) | 2.79%
* CCCN(CCS(C)(=O)=O)Cc1ccc(-c2ccc3ncnc(Nc4ccc(OCc5cccc(F)c5)c(Cl)c4)c3c2)o1 | 1.1%
* NC(=O)c1sc(-n2cnc3ccc(C(F)(F)F)cc32)cc1OCc1ccccc1Br | 2.72%

====

molecular target: NUAK family SNF1-like kinase 1 (Homo sapiens) (UniProt O60285); conditions: at 0.1 µM;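 also: reported values are mean inhibition of ARK5 (NUAK1), from the GSK PKIS screen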
Sequence (O60285 whole entry): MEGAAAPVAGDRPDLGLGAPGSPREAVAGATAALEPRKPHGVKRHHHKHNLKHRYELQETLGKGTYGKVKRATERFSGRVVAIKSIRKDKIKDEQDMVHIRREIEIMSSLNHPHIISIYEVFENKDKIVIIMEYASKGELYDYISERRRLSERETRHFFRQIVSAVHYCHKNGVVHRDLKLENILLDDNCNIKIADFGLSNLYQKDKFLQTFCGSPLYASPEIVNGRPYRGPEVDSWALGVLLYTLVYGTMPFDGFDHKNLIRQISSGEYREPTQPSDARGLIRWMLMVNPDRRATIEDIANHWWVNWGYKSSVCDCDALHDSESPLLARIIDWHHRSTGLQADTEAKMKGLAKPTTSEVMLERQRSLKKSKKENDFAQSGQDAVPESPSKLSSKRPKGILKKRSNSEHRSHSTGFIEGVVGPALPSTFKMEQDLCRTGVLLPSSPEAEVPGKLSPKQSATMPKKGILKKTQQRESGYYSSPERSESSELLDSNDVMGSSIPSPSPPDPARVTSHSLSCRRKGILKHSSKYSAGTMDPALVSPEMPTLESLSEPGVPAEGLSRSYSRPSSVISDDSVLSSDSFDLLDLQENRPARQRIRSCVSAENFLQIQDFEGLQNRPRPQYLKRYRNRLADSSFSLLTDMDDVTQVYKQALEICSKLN
readoutKind: inhibition (%)

• COc1ccc2c(-c3ccnc(Nc4cccc(OC(F)(F)F)c4)n3)cnn2n1 = 6.86
• Cc1ccc2c(-c3ccnc(Nc4ccccc4)n3)c(-c3ccc(F)cc3)nn2n1 = 1.74
• CCCN1CCC(c2ccc(Nc3nc(Nc4cc(F)ccc4C(N)=O)c4cc[nH]c4n3)c(OC)c2)CC1 = 31.8
• CC1=C(C(=O)Nc2cc(Cl)c3[nH]ncc3c2)C(c2ccc(C(F)(F)F)cc2)CC(=O)N1 (stereo unspecified) = 1.17
• Cc1cccc(Nc2ncc(-c3ccccc3)o2)c1 = 2.69
• NS(=O)(=O)c1ccc(Nc2ncc(-c3ccccc3)o2)cc1 = 10.7
• COc1cc(N2CCN(C(C)C)CC2)ccc1Nc1nc(Nc2ccc(F)cc2C(N)=O)c2cc[nH]c2n1 = 66.6
• COc1cccc(-n2ncc3c(N/N=C/c4ccc(F)cc4)ncnc32)c1 = 6.48
• CN1CCC(n2cnc(-c3ccc(F)cc3)c2-c2ccnc(Nc3ccccc3)n2)CC1 = -2.56
• COc1cc(Nc2nccc(Nc3ccc4c(C)n[nH]c4c3)n2)cc(OC)c1OC = 10.4
• [O-][S+]1CCN(Cc2ccc(-c3ccc4ncnc(Nc5ccc(OCc6cccc(F)c6)c(Cl)c5)c4c3)o2)CC1 = 0.9
• CCn1cc(-c2ccnc3[nH]ccc23)c(-c2cccc(NC(=O)Nc3ccc(OCc4ccccc4)cc3)c2)n1 = -0.37
• CCn1c(-c2nonc2N)nc2ccccc21 = 1.56
• Fc1ccc(-c2nn3ccccc3c2-c2ccncc2)cc1 = -0.02
• O=C(Nc1n[nH]c2cc(-c3ccc(F)cc3)ccc12)C1CC1 = 0.71
• c1ccc(COc2ccc(Nc3ncnc4ccc(-c5ccco5)cc34)cc2)cc1 = -0.16
• CS(=O)(=O)CCNCc1coc(-c2ccc3ncnc(Nc4ccc(OCc5ccccc5)cc4)c3c2)c1 = 2.46
• CC(=O)NCc1cccc(C#Cc2cncnc2Nc2ccc(OCc3cccc(F)c3)c(Cl)c2)c1 = 3.47
• CC(C)(CO)CNC(=O)c1ccc2c(c1)/C(=N/Nc1ccc(S(N)(=O)=O)cc1)C(=O)N2 = 19.7
• COc1cc(/C=N/Nc2ncnc3[nH]ncc23)ccc1O = 6.98
• NS(=O)(=O)c1ccc(N/N=C2\C(=O)Nc3ccc4ncccc4c32)cc1 = 79.8
